TGI by entry:
Test system: NCI-H226 lung
assayRemarks: NCI tumour cell line growth inhibition, 48 h

>  <compound>
c1ccc2c(c1)cc(C1NCCc3[nH]cnc31)c1ccccc12 (stereo not given)

>  <TGI>
> 68.1 µM

$$$$
>  <compound>
COc1cc([C@@H]2OC[C@@H]3C(c4cc(OC)c5c(c4)OCO5)OC[C@@H]32)cc(OC)c1OC (stereo not given in full)

>  <TGI>
> 100 µM

$$$$
>  <compound>
CCCCCCCCCCCCCCCCCCOc1ccccc1CC(=O)OCC[N+]1(C)CCCCC1

>  <TGI>
6.25 µM

$$$$

Then there is this compound:
The compound CCC1C2Cc3ccc(O)cc3C1(CC)CCN2C (stereo not given) showed TGI equal to > 100 µM

* * *

Tested on: 786-0 renal
assayRemarks: NCI tumour cell line growth inhibition, 48 h
measuredEndpoint: TGI

>  <compound>
O=C(O)C(SC(=S)c1ccc(C(=S)SC(C(=O)O)c2ccccc2)cc1)c1ccccc1 (stereo not given)

>  <measuredEndpoint>
TGI

>  <obsValue>
> 100 µM

$$$$
>  <compound>
Cc1cc(=O)[nH]c(-n2[nH]c(C)c(CCO)c2=O)n1

>  <measuredEndpoint>
TGI

>  <obsValue>
> 100 µM

$$$$
>  <compound>
C[C@]12CCC(=O)C=C1CC[C@@H]1[C@@H]2CC[C@]2(C)C(=O)NC(=O)C[C@@H]12

>  <measuredEndpoint>
TGI

>  <obsValue>
> 100 µM

$$$$
>  <compound>
CC(C)[C@H](N)C(=O)N1CCC[C@H]1B(O)O

>  <measuredEndpoint>
TGI

>  <obsValue>
> 100 µM

$$$$
>  <compound>
CCOC(CN(C)C(=O)Nc1cccc2ccccc12)OCC

>  <measuredEndpoint>
TGI

>  <obsValue>
> 10 µM

$$$$

The compound "COc1ccc2cc(C(=O)/C=C/c3ccc(Cl)cc3Cl)ccc2c1" showed TGI equal to 24.3 µM

The compound "Cc1cc2ccccc2n2c1nc1ccccc12" showed TGI equal to > 100 µM

The compound "COCCOC(=O)c1c(C)n([O-])c2cc(Cl)c(Cl)cc2[n+]1=O" showed TGI equal to 85.1 µM

The compound "CCCCNc1nc(C#N)c(N)s1" showed TGI equal to > 100 µM

The compound CC(=O)CC(=O)OC1CC(C)CCC1C(C)C (stereo not given) showed TGI equal to > 100 µM

The compound O=C(CC(=O)N(C(=O)/C=C\c1ccccc1)c1ccc(Cl)cc1)N1N=C(c2ccccc2)C(N=Nc2cccc([N+](=O)[O-])c2)C1=O (stereo not given) showed TGI equal to 19.6 µM

The compound "Cn1c(=O)c(Br)c(C=O)n(CCO[N+](=O)[O-])c1=O" showed TGI equal to 17.3 µM

The compound "CCc1cc(C(=O)OC)cn1C(=N)c1ccc(Cl)cc1" showed TGI equal to > 100 µM

* * *

NCI-H460 lung: reported GI50 for various compounds.

Illustrative cases are given below, each with its answer.
>  <compound>
COc1ccc2c(c1)c(=O)oc1cc(OC/C(C)=N\O)ccc12

>  <GI50>
> 100 µM

$$$$
>  <compound>
Cc1cc2c(cc1C)N(C(=O)CCl)CC(=O)N2

>  <GI50>
3.66 µM

$$$$
>  <compound>
CC(C)[C@H](N)C(=O)N1CCC[C@H]1B(O)O

>  <GI50>
> 100 µM

$$$$
>  <compound>
COc1ccc(C(=O)c2cc(OC)c(OC)c(OC)c2)cc1OC(=O)CCl

>  <GI50>
0.0399 µM

$$$$
>  <compound>
CC(C)(C)c1ccc(Oc2nccc(-c3c(-c4ccc(F)cc4)ncn3C3CCNCC3)n2)cc1

>  <GI50>
3.91 µM

$$$$

Value sought: GI50, system NCI-H460 lung, item "COc1cc(C[C@H]2c3cc(OC)c(OC)cc3CCN2C)c(Oc2cc3c(cc2OC)-c2c(OC)c(OC)cc4c2[C@H](C3)N(C)CC4)cc1OC" . Result: 14.1 µM

Value sought: GI50, system NCI-H460 lung, item "Nc1ncnc2nc[nH]c12" . Result: 21.3 µM

Value sought: GI50, system NCI-H460 lung, item Fc1ccc2c(c1)C1=NN(c3ccccc3)C(F)C1CO2 (stereo not given) . Result: 10.5 µM

Value sought: GI50, system NCI-H460 lung, item "CC(C)(C)OC(=O)N1CCN(CCn2cc(C(F)(F)F)c3c(Cl)ncnc32)CC1" . Result: 2.18 µM

Value sought: GI50, system NCI-H460 lung, item "COc1cc([N+](=O)[O-])c(OC)cc1-c1nc2sc(Cl)cn2c1/C(N)=N/C(=N)N" . Result: 16.1 µM

* * *

NCI-H460 lung: reported GI50 for various molecules.

Value sought: GI50, system NCI-H460 lung, item "COc1ccc(-c2nc(-c3nc4ccc(OC)cc4[nH]3)c3ccccn23)cc1" . Result: 3.23 µM

Value sought: GI50, system NCI-H460 lung, item "COc1ccc(/C(COc2ccc3c(=O)cc(-c4ccccc4)oc3c2)=N\O)cc1" . Result: 13.3 µM

Value sought: GI50, system NCI-H460 lung, item "CCCCCCCCCCCCCCCCCCOc1ccccc1CC(=O)OCC[N+]1(C)CCCCC1" . Result: 2.34 µM

Value sought: GI50, system NCI-H460 lung, item "C=C1C(=O)O[C@H]2[C@H]1CC/C(COC(=O)NCc1ccc(Cn3c(=O)sn(CCCl)c3=O)cc1)=C\CC[C@@]1(C)O[C@@H]21" . Result: 15 µM

Value sought: GI50, system NCI-H460 lung, item "C=C(C)C(=O)O[C@H]1CC(=C)[C@@H]2C[C@H](O)[C@](O)(CCl)[C@@H]2[C@H]2OC(=O)C(=C)[C@@H]21" . Result: 10.2 µM

Value sought: GI50, system NCI-H460 lung, item "CN(O)c1nc(N(C)O)nc(N2CCOCC2)n1" . Result: 0.8 µM

Value sought: GI50, system NCI-H460 lung, item "CN(C)CCN1C(=O)c2ccccc2N(C)c2ccccc21" . Result: > 100 µM

* * *

Test system: HOP-18 NSCLC
assayRemarks: NCI tumour cell line growth inhibition, 48 h
measuredEndpoint: TGI

Illustrative cases are given below, each with its answer.
>  <itemSmiles>
Nc1ccnc(=O)[nH]1

>  <TGI>
> 100 µM

$$$$
>  <itemSmiles>
CP1(=O)CCCCC1

>  <TGI>
> 100 µM

$$$$

The compound "Cn1cc(C(=O)NCCC(=N)N)cc1NC(=O)C1=[N+](C)C=C(NC(=O)c2cccc(C(=O)NC3=CC(C(=O)Nc4cc(C(=O)NCCC(=N)N)cn4C)=[N+](C)C3)c2)C1" showed TGI equal to > 100 µM

* * *

Tested on: SR leukemia
assayRemarks: NCI tumour cell line growth inhibition, 48 h
measuredEndpoint: TGI (µM)
Unit µM implied. Number only.

>  <compound>
COc1cc2ccc(/C=C\[N+](=O)[O-])cc2cc1OC

>  <assayedSystem>
SR leukemia

>  <measuredEndpoint>
TGI

>  <obsValue>
5.28

$$$$
>  <compound>
Cc1nn2c(/C=C3\C(=O)Nc4ccc(Cl)cc43)c(C)nc2s1

>  <assayedSystem>
SR leukemia

>  <measuredEndpoint>
TGI

>  <obsValue>
64.4

$$$$
>  <compound>
O=C(Nc1ccc(Cl)cc1)c1cc2cc(N=Nc3ccccc3Cl)ccc2oc1=O

>  <assayedSystem>
SR leukemia

>  <measuredEndpoint>
TGI

>  <obsValue>
34.9

$$$$
>  <compound>
COc1cc(OC(=O)c2ccccc2)cc2c1C(=O)C=CC2=O

>  <assayedSystem>
SR leukemia

>  <measuredEndpoint>
TGI

>  <obsValue>
5.03

$$$$

Then there is this compound:
Value sought: TGI, system SR leukemia, item C=C1CCC2C3(C)COC(c4ccc(N(C)C)cc4)OC3CCC2(C)C1C/C=C1/C(=O)OCC1O (centres undefined) . Result: 3.77

* * *

Test system: NCI/ADR-RES ovarian
assayRemarks: NCI tumour cell line growth inhibition, 48 h
*1 amine or outer side, *2 acyl side, *3 side chain or, on linkers, in order; H or OH if unused. Where a SMILES comes first, the peptide text is derived from it. [ ]: non-standard residue; d: D form. The star is where a group is joined. X31 = CC(=O)N(C)SCC(N[*:1])C(=O)[*:2]; Cbz = O=C(OCc1ccccc1)*; Bn = c1ccc(C*)cc1; For = O=C*
measuredEndpoint: TGI

Value sought: TGI, system NCI/ADR-RES ovarian, item CC(=O)N(C)SCC(NC(=O)C(Cc1ccccc1)NC(=O)OCc1ccccc1)C(=O)NC(Cc1ccccc1)C(=O)NC(Cc1cn(C=O)c2ccccc12)C(=O)NC(CCCCNC(=O)OCc1ccccc1)C(=O)NC(C(=O)NC(CSN(C)C(C)=O)C(=O)NC(C(N)=O)C(C)OCc1ccccc1)C(C)OCc1ccccc1 (configuration not stated) (Cbz-F[X31]FW(For)K(Cbz)T(Bn)[X31]T(Bn)-NH2; configuration not given here) . Result: > 100 µM

Value sought: TGI, system NCI/ADR-RES ovarian, item "C=C1C(=O)O[C@H]2[C@H]1CC/C(COC(=O)NCc1ccc(Cn3c(=O)sn(CCCl)c3=O)cc1)=C\CC[C@@]1(C)O[C@@H]21" . Result: 77.8 µM
